Each item that follows carries a reported Kd.
# assay.system: muscarinic receptors of the cerebral cortex (Rattus norvegicus, UniProt P08482)
# Sequence (P08482 1-460): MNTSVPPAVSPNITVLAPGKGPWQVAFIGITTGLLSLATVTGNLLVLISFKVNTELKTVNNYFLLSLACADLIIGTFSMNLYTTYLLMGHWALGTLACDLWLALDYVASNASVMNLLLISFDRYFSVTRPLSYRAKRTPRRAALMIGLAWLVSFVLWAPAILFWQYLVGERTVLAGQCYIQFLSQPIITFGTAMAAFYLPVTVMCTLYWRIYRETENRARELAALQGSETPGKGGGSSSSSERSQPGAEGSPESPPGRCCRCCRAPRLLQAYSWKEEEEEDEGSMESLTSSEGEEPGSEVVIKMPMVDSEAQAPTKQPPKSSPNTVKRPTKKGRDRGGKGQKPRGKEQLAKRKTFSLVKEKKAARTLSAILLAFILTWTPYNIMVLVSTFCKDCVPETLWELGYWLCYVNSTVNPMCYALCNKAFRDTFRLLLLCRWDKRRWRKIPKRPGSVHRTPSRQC
# protocol.text: biochemical
# Design: species or system male CD-COOBBS rats
# cond: competition against 0.5 nM ^3 H-pirenzepine, rat cerebral cortex homogenate, 45 min at 30° C., pH 7.4; corrected for radioligand occupancy shift; read-out: Antimuscarinic effect. Dissociation constants (KD) for ^3 H-pirenzepine binding
Structures can show the parent of a compound that is named as a salt.
measure.name: Kd (nM)

[[record]]
molecule = "OC(CCN1C=NCCC1)(c1ccccc1)C1CCCCC1 (centres unmarked) [Compound 1, hydrochloride]"
assay_result = 4.2

[[record]]
molecule = "CC1=NCCN1CCCC(O)(c1ccccc1)C1CCCCC1 (centres unmarked) [Compound 21, hydrochloride]"
assay_result = 7.4

[[record]]
molecule = "OC(CCN1C=NCC1)(c1ccccc1)C1CCCCC1 (centres unmarked) [Compound 23, hydrochloride]"
assay_result = 14

[[record]]
molecule = "OC(CCCN1C=NCCC1)(c1ccccc1)C1CCCCC1 (centres unmarked) [Compound 22, hydrochloride]"
assay_result = 5

[[record]]
molecule = "CC1=NCCN1CCC(O)(c1ccccc1)C1CCCCC1 (centres unmarked) [Compound 2, hydrochloride]"
assay_result = 3

